System: Tyrosine-protein kinase ABL1 (Homo sapiens), P00519 [M351T]
Conditions: at 0.1 µM
Quick reference: inhibition of the listed items.
Your answer is read as %, so omit the unit and give the number.

>  <Chemical smiles>
COc1cc(/C=N/Nc2ncnc3[nH]ncc23)ccc1O

>  <Measure name>
inhibition

>  <Reported value>
42.9

$$$$
>  <Chemical smiles>
COc1ccc(CNC(=O)c2ccc(-c3cc(-c4nnc(C)o4)ccc3C)cc2)cc1

>  <Measure name>
inhibition

>  <Reported value>
2.42

$$$$
>  <Chemical smiles>
Cc1cccc2c1NC(=O)/C2=N\Nc1ccc(S(N)(=O)=O)cc1

>  <Measure name>
inhibition

>  <Reported value>
0.61

$$$$
>  <Chemical smiles>
COc1ccc2c(-c3ccnc(Nc4cccc(OC(F)(F)F)c4)n3)cnn2n1

>  <Measure name>
inhibition

>  <Reported value>
1.37

$$$$
>  <Chemical smiles>
COc1cccc(-c2c[nH]c3c(N/N=C/c4ccncc4)ncnc23)c1

>  <Measure name>
inhibition

>  <Reported value>
76.5

$$$$

Query (compound): Nc1ncc(-c2cccc(S(N)(=O)=O)c2)c2scc(-c3ccc(F)c(Cl)c3)c12 ; field requested: inhibition
64.2

Query (compound): O=S(=O)(CCNCc1ccc(-c2ccc3ncnc(Nc4ccc(OCc5cccc(F)c5)c(Cl)c4)c3c2)o1)c1ccccc1 ; field requested: inhibition
1.27

Query (compound): N#Cc1c(NC(=O)c2ccc(F)cc2)sc2c1CCCC2 ; field requested: inhibition
-1.3

Query (compound): CCCN(CCS(C)(=O)=O)Cc1ccc(-c2ccc3ncnc(Nc4ccc(OCc5cccc(F)c5)c(Cl)c4)c3c2)o1 ; field requested: inhibition
3.22

Query (compound): COc1ccc(-c2cc(-c3c[nH]nc3-c3ccccn3)ccn2)cc1 ; field requested: inhibition
15.3

Query (compound): COc1ccc(-c2cc3c(N)ncnc3o2)cc1 ; field requested: inhibition
0.58

Query (compound): c1ccc(-c2nc3n(c2-c2ccc4c(c2)OCO4)CCC3)nc1 ; field requested: inhibition
1.01
